Recorded growth inhibition values for a group of molecules are listed next.
- test: NCI Yeast Anticancer Drug Screen. Data for the mec2-1 strain (AID 157)
- stated-conditions: S. cerevisiae mec2-1 strain, at 50.0 µM, hits give high values
This is part of a sample that, as a whole, favours compounds with a hit. Of some 79,000 tested, about 15% had one in any assay.
parameter: growth inhibition (%)

[[record]]
molecule = "CCOC(=O)C(Br)C(C)C (stereo not drawn)"
measured_value = 12

[[record]]
molecule = "CCOc1ccc([N+](=O)[O-])cc1CNCCBr"
measured_value = -1.3

[[record]]
molecule = "NC(Cc1cnc[nH]1)C(=O)NC(Cc1cnc[nH]1)C(=O)O (stereo not drawn)"
measured_value = 9

